B1: TPR 5TU (parent)
chain: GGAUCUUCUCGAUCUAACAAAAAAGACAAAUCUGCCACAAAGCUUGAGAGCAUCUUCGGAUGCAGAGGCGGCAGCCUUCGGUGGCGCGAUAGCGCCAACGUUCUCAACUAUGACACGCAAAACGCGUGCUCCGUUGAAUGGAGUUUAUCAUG

Variants of: B1
method_notes: polymerase ribozyme fitness, log enrichment relative to wild type (log ratio); higher = more active; in vitro selection for triplet polymerase activity
Variants at the floor of the assay were thinned out.
measurement_kind: polymerase ribozyme fitness (log ratio)
Form rule: numeric answer, no unit written next to it.

INSERT INTO assay_data (mutation_list, endpoint_value) VALUES
  ('A17C U53G U55A A121G', -1.71),
  ('A91G G143C', -3.43),
  ('G92U C118A', -1.05),
  ('A23U U55A', -3.85),
  ('U53G G94C A115U', -3.49),
  ('G67U C93U', -3.74),
  ('C57G G92U', -0.526),
  ('U15G A22U U53A A121C A147C', 0.0126),
  ('C95A', 0.441),
  ('A49U', -0.673);

[in] Which polymerase ribozyme fitness (log ratio) reading was recorded for the variant C35U U56A C57A A97U C123U U130C ?
[out] -0.0554

[in] Which polymerase ribozyme fitness (log ratio) reading was recorded for the variant A47U G62C G84U ?
[out] -3.86

[in] Which polymerase ribozyme fitness (log ratio) reading was recorded for the variant C57A U102G ?
[out] -1.73

[in] Which polymerase ribozyme fitness (log ratio) reading was recorded for the variant A17G C99U ?
[out] -0.271

[in] Which polymerase ribozyme fitness (log ratio) reading was recorded for the variant G48U C57G C93U G136A U146G ?
[out] -2.43

Cited source for all entries: the RNAGym collection of RNA variant scans (doi:10.1073/pnas.2313332121)
